# test-method-notes: Caspase-3/7 induction in CHO-K1 cells by small molecules, qHTS cell viability counter screen (AID 1346979); also: nearly all actives have a fitted effect of over 35% in size
# experimental-conditions: CellTiter-Fluor fluorescence, 17 h; series mostly up to 92.4 µM
Records with an inconclusive call do not appear. Activity calls are given as the source filed them. Calls follow the shape of the dose curve; as a rule, active = well fitted cell-killing curve with a large enough effect in the repeat runs; inconclusive = weak or mixed curves, or effect the other way; inactive = no such curve, though single readings can be large or run the other way.
A correct response names exactly one class from 1.0 (active), 0.0 (inactive)

Input: Fill in: this test's call for N#CCC(=O)O is ___
Output: 0.0

Input: // param item: Cc1ccncc1 ; yields the recorded call
Output: 0.0

Input: Identify the outcome logged in this assay for the molecule shown: CC(=O)CC(=O)N(C)C
Output: 0.0

Input: // outcome(item) with item = O=C1OC(=O)c2c(Cl)c(Cl)c(Cl)c(Cl)c21
Output: 0.0

Input: Please let me know the test result on file for CC1(C)C(=O)N(Cl)C(=O)N1Cl .
Output: 0.0

Input: Please state the recorded outcome for this molecule: CC(=O)OCc1ccc2c(c1)OCO2
Output: 0.0

Input: Check the results log: what was the call for CC(C)(C)NC[C@H](O)COc1nsnc1N1CCOCC1 ?
Output: 0.0

Input: Given Cc1ccccc1C=O , state the outcome it received in this test.
Output: 0.0

Input: GET /call?item= CC(=O)OC(C)(C)C1CC=C(C)CC1 (stereo unspecified) returns the recorded outcome of this test.
Output: 0.0

Input: Recorded call for CS(=O)(=O)c1ccc(Cl)cc1 ?
Output: 0.0

Input: Can you look up the reported call for COc1ccc(N)c(OC)c1 for me?
Output: 0.0

Input: Recorded call for O=C1O[C@H]([C@H](O)CO)C(O)=C1O ?
Output: 0.0

Input: Record lookup: outcome of this test for CC(CN1c2ccccc2Sc2ccccc21)N(C)C (stereo unspecified) ?
Output: 1.0

Input: Which outcome was entered for the molecule CN=C(NC#N)NCCSCc1nc[nH]c1C in this test?
Output: 0.0

Input: Identify the outcome logged in this assay for the molecule shown: NC(N)=S
Output: 0.0

Input: Call for entry Nc1cccc(N)n1 :
Output: 0.0

====

# test-method-notes: qHTS RealTime-Glo MT Cell Viability Assay in HepG2 cells - 16 hour (AID 1224885); also: % is scaled to controls: 0 for no effect and ±100 for the full control effect; nearly all actives have a fitted effect of over 50% in size
# experimental-conditions: RealTime-Glo luminescence; series mostly up to 76.8 µM
Results filed as inconclusive are left out. The source made the active and inactive calls. Calls come from the whole dose curve; as a rule, active = well fitted cell-killing curve with a large enough effect in the repeat runs; inconclusive = weak or mixed curves; inactive = flat fitted curve, though single readings scatter.
reported-endpoint: outcome

CC(=O)c1nccs1 = inactive
COCN(COC)c1nc(N(COC)COC)nc(N(COC)COC)n1 = inactive
NC(=O)c1ncn([C@@H]2O[C@H](CO)[C@@H](O)[C@H]2O)n1 = inactive
CC(C)=CCC/C(C)=C/C=O = inactive
CC(=O)OC/C=C(\C)CCC=C(C)C = inactive
O=C1O[C@H]([C@H](O)CO)C(O)=C1O = inactive

The molecule listed as CCCCCC(C)=O has a reported outcome of inactive

Note to self: outcome recorded for NC(=O)NC(N)=O was inactive

get_value(item= Cc1nnc(NS(=O)(=O)c2ccc(N)cc2)s1 , readout=outcome) returns inactive

// N[C@@H](Cc1cc(I)c(Oc2ccc(O)c(I)c2)c(I)c1)C(=O)O : outcome value = inactive

Query CC1(C)[C@@H](O[C@H]2O[C@H](C(=O)O)[C@@H](O)[C@H](O)[C@H]2O[C@@H]2O[C@H](C(=O)O)[C@@H](O)[C@H](O)[C@H]2O)CC[C@]2(C)[C@H]3C(=O)C=C4[C@@H]5C[C@@](C)(C(=O)O)CC[C@]5(C)CC[C@@]4(C)[C@]3(C)CC[C@@H]12 yields outcome of inactive

Entry OB(O)O , outcome reported as inactive

====

# target: Estrogen receptor (Homo sapiens)
# test-method-notes: qHTS assay to identify small molecule agonists of the estrogen receptor alpha (ER-alpha) signaling pathway (AID 743075);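 also: HEK293 GripTite cells with ER-alpha and UAS-driven beta-lactamase reporter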
# experimental-conditions: HEK293 ER-alpha-UAS-bla, beta-lactamase FRET ratio, 18 h; series mostly up to 70.1 µM
Active and inactive are the calls of the source. Calls come from the whole dose curve.
Write down one outcome, taken from 1 (active), -1 (inactive)

Input: What was the test verdict on C1CCCNCC1 ?
Output: -1

Input: Each molecule tested received a call. Report the one for C=CC(=O)NCOCCCC .
Output: -1

Input: Query: recorded result category for COCN(COC)c1nc(N(COC)COC)nc(N(COC)COC)n1 in this test
Output: -1

Input: Outcome? CC/C=C(\C(=O)N[C@@H]1C(=O)N2C(C(=O)OCOC(=O)C(C)(C)C)=C(COC(N)=O)CS[C@H]12)c1csc(N)n1
Output: -1

Input: In this assay, the call recorded for CC(=O)OC(C)(C)C1CC=C(C)CC1 (stereo not drawn) was what?
Output: -1

Input: Test call for this molecule, please: OCC(CO)(CO)CO
Output: -1

Input: State the result this test recorded for CCOC(=O)c1ccc(O)cc1 .
Output: -1

Input: Entry O=c1c(O)c(-c2ccc(O)c(O)c2)oc2cc(O)cc(O)c12 : call = ?
Output: 1

Input: Query: recorded result category for CC(=O)CC(=O)N(C)C in this test
Output: -1

Input: For this molecule, state the assay outcome: O=C(O)C1=NN(c2ccc(S(=O)(=O)O)cc2)C(=O)C1
Output: -1

Input: Assay result, entry OCC(O)CS (stereo not drawn) — outcome?
Output: -1

Input: Answer briefly: the call reported for Cc1ccccc1C=O in this assay.
Output: -1

Input: Assay outcome for CCCCCCCCCCCC(=O)N(C)CC(=O)O : what was it?
Output: -1

Input: Test call, this molecule: O=C(Cl)c1ccc(C(=O)Cl)cc1
Output: -1

Input: Please state the recorded outcome for this molecule: NC(N)=S
Output: -1

Input: What did the test return for COc1ccc2cc3[n+](cc2c1OC)CCc1cc2c(cc1-3)OCO2 ?
Output: -1

Input: // return assay outcome for CN=C(NC#N)NCCSCc1nc[nH]c1C
Output: -1

Input: I would be grateful if you could indicate the recorded call for OB(O)O .
Output: -1

Input: Kindly provide the recorded test outcome for the following molecule: CC(C)c1ccc(C(C)C)cc1
Output: -1

Input: Recorded test call requested for Cc1ccncc1
Output: -1

Input: Lab log entry: CC(=O)C(C)C — outcome as called in the assay?
Output: -1

Input: For COc1c2ccoc2cc2oc(=O)ccc12 , which call appears in the assay record?
Output: -1

Input: Could you check what this test reported for Cc1cc(C)c(O)c(C)c1 ?
Output: -1

Input: Hey, what did the test say about O=C1CCCCCCCCCCC1 ?
Output: -1

Input: Please indicate how the test categorized OC1CCCCC1 .
Output: -1

Input: Short answer needed: outcome of this test for CCCCC(=O)O ?
Output: -1

Input: Any idea what this test logged for CCCCCCCCO ?
Output: -1

Input: # outcome recorded in this test, key = CC(O)CNCC(C)O (stereo not drawn)
Output: -1

Input: Returns: the outcome recorded for Cc1ccc(Cl)cc1 in this assay.
Output: -1

Input: Can you look up the reported call for CCCCCCCCCCCCCC(=O)O for me?
Output: -1

Input: Assay result, entry Nc1cccc(C(F)(F)F)c1 — outcome?
Output: -1

Input: Could you kindly confirm the outcome this assay logged for COc1c(Cl)ccc(Cl)c1C(=O)O ?
Output: -1

Input: Assay outcome for CC(=O)OC/C=C(\C)CCC=C(C)C : what was it?
Output: -1

====

# target: Progesterone receptor (Homo sapiens)
# test-method-notes: qHTS assay to identify small molecule antagonists of the progesterone receptor (PR) signaling pathway (AID 1346795)
# experimental-conditions: PR-UAS-bla HEK293T, beta-lactamase FRET ratio, 16 h; series mostly up to 92.4 µM
Records with an inconclusive call do not appear. The source made the active and inactive calls. Calls come from the whole dose curve; as a rule, active = well fitted inhibition curve with a large enough effect in the signal ratio in the repeat runs (not every such curve was filed as active); inconclusive = weak or mixed curves; inactive = flat fitted curve, though single readings scatter; the % refers to the signal ratio.
Entry note: the call must match one of active, inactive

Input: Recorded test outcome, item C1CCCNCC1
Output: inactive

Input: Recorded test outcome, item O=C1CCCCCCCCCCC1
Output: inactive

Input: So what was the verdict on COc1c2ccoc2cc2oc(=O)ccc12 in this test?
Output: active

Input: Recorded test outcome, item Cc1ccc(C(C)C)cc1
Output: inactive

Input: Tell me the recorded outcome of this test for OCCOCCOCCOCCOCCO .
Output: inactive

Input: Please state the recorded outcome for this molecule: CCc1cccc(O)c1
Output: inactive

Input: Call for entry O=[N+]([O-])c1ccccc1C(F)(F)F :
Output: inactive

Input: // outcome(item) with item = Cc1nnc(NS(=O)(=O)c2ccc(N)cc2)s1
Output: inactive

Input: Hey, what did the test say about CC(=O)C(C)C ?
Output: inactive

Input: Check the results log: what was the call for Cc1ncc(CO)c(CO)c1O ?
Output: inactive

Input: Name the outcome recorded for O=C(NCC1CCCCN1)c1cc(OCC(F)(F)F)ccc1OCC(F)(F)F (stereo unspecified) in the assay.
Output: inactive

Input: Recorded call for OB(O)O ?
Output: inactive

Input: Write down the call the test reported for this molecule. Item: CCCCC(=O)O
Output: inactive

Input: Which outcome did this test record for the molecule Cc1ccncc1 ?
Output: inactive

Input: Give the logged outcome of this assay for the following molecule: O=C(Cl)c1ccc(C(=O)Cl)cc1
Output: inactive

Input: Query: recorded result category for CC(=O)OC/C=C(\C)CCC=C(C)C in this test
Output: inactive

Input: Hello, I am checking results. What call was entered for COC(=O)CCCCC(=O)OC ?
Output: inactive

Input: I'd appreciate the recorded outcome for CC(C)c1ccc(C(C)C)cc1 from this test.
Output: inactive

Input: Fill in: this test's call for Cc1cccc(C)c1[N+](=O)[O-] is ___
Output: inactive

Input: Please indicate how the test categorized CCCCCC(C)=O .
Output: inactive

Input: Recorded test outcome, item O=C1C(N(CO)C(=O)NCO)N(CO)C(=O)N1CO (stereo unspecified)
Output: inactive

Input: Given COc1ccc(N)c(OC)c1 , state the outcome it received in this test.
Output: inactive

Input: Would you mind telling me which call this test gave CCCCCNCCCCC ?
Output: inactive

Input: // param item: NC(=O)NC(N)=O ; yields the recorded call
Output: inactive

Input: How was CCCOCC(C)O (stereo unspecified) classified in this test?
Output: inactive

Input: Test call, this molecule: C[n+]1ccn(CCO)c1
Output: inactive

Input: I would be grateful if you could indicate the recorded call for CC(C=O)Cc1ccc(C(C)(C)C)cc1 (stereo unspecified) .
Output: inactive

Input: What did the test return for CC/C=C(\C(=O)N[C@@H]1C(=O)N2C(C(=O)OCOC(=O)C(C)(C)C)=C(COC(N)=O)CS[C@H]12)c1csc(N)n1 ?
Output: inactive

Input: Could you kindly confirm the outcome this assay logged for CCOC(=O)c1ccc(O)cc1 ?
Output: inactive

Input: What classification did OCC(O)CS (stereo unspecified) end up with in this test?
Output: inactive

Input: Record request — test call for Brc1ccc(Oc2ccc(Br)cc2)cc1
Output: inactive

Input: # fetch the recorded call for O=C1O[C@H]([C@H](O)CO)C(O)=C1O here
Output: inactive

Input: Each molecule tested received a call. Report the one for CN1CCCC1=O .
Output: inactive

Input: Hi, sorry to bother you, what did the test record for COC(=O)OC ?
Output: inactive

Input: // return assay outcome for CCCCCCCCCCCCCC(=O)O
Output: inactive

Input: Could you please tell me the result logged for CC(=O)OCCC(C)C in this assay?
Output: inactive

Input: Can you look up the reported call for CCCN(CCC)C(=O)SCC for me?
Output: inactive

Input: // outcome(item) with item = CC(=O)c1nccs1
Output: inactive

Input: Just curious, what result did CCOC(=O)CC(=O)OCC get here?
Output: inactive

Input: For CC(=O)CC(=O)N(C)C , what call appears in the results of this test?
Output: inactive

Input: Call for entry C=CC(C)(C)C :
Output: inactive

Input: I would be grateful if you could indicate the recorded call for OCc1ccc(Cl)cc1Cl .
Output: inactive

Input: Which result was noted for this molecule in the test: O=C(O)C1=NN(c2ccc(S(=O)(=O)O)cc2)C(=O)C1
Output: inactive

Input: Returns: the outcome recorded for COc1ccccc1[N+](=O)[O-] in this assay.
Output: inactive

Input: Outcome logged for CN=C(NC#N)NCCSCc1nc[nH]c1C in this assay:
Output: inactive

Input: Could you kindly confirm the outcome this assay logged for C=C(CC(=O)O)C(=O)O ?
Output: inactive

Input: Would you mind telling me which call this test gave Nc1cccc(N)n1 ?
Output: inactive

Input: Check the results log: what was the call for C=C1C[C@]23C[C@@]1(O)CC[C@H]2[C@@]12C=C[C@H](O)[C@@](C)(C(=O)O1)[C@H]2[C@@H]3C(=O)O ?
Output: inactive

Input: Hi, do you know how OC[C@H]1O[C@@H](Oc2ccc(O)cc2)[C@H](O)[C@@H](O)[C@@H]1O came out in this test?
Output: inactive

Input: In this assay, the call recorded for NC1CCCCC1N (stereo unspecified) was what?
Output: inactive

Input: Field: outcome | Entry: CC1(C)C(=O)N(Cl)C(=O)N1Cl
Output: inactive

Input: Which result was noted for this molecule in the test: COCN(COC)c1nc(N(COC)COC)nc(N(COC)COC)n1
Output: inactive

Input: Entry CC(=O)OC[C@H]1O[C@@](COC(C)=O)(O[C@H]2O[C@H](COC(C)=O)[C@@H](OC(C)=O)[C@H](OC(C)=O)[C@H]2OC(C)=O)[C@@H](OC(C)=O)[C@@H]1OC(C)=O : call = ?
Output: inactive

Input: Outcome? O=C(O)Cc1c[nH]c2ccccc12
Output: inactive

Input: What was the test verdict on COc1ccc([C@@H]2CC(=O)c3c(O)cc(O[C@@H]4O[C@H](CO[C@@H]5O[C@@H](C)[C@H](O)[C@@H](O)[C@H]5O)[C@@H](O)[C@H](O)[C@H]4O)cc3O2)cc1OC ?
Output: inactive

Input: Returns: the outcome recorded for Cc1cc(C)c(O)c(C)c1 in this assay.
Output: inactive

Input: Please share the test call associated with Cc1ccc([N+](=O)[O-])cc1N .
Output: inactive

Input: What is the recorded call for this molecule in the test? Cc1ccccc1C=O
Output: inactive

Input: Which outcome did this test record for the molecule CC(C)(CO)CO ?
Output: inactive

Input: Hi team, can someone confirm the assay call for CC1=CC(=O)CC(C)(C)C1 ?
Output: inactive

Input: Kindly provide the recorded test outcome for the following molecule: CC/C(C)=N/O
Output: inactive
